- Test system: ragweed
- MEASUREMENT_PROTOCOL: Test A postemergence
- Type: in vivo, Ambrosia artemisiifolia
- STUDY_CONDITIONS: 500 g ai/ha, Postemergence; 0 to 100 scale
Could you please report measured Plant response rating, Ragweed for the items listed next?

Consider the reported Plant response rating, Ragweed for these compounds:
{"COMPOUND": "C[C@H]1CN(C(=O)c2cccc(-n3cncn3)c2)c2cccc(OC(F)(F)F)c2O1", "OBSERVATION_TYPE": "Plant response rating, Ragweed", "RESULT": 20}
{"COMPOUND": "Cc1cccc2c1O[C@@H](C)CN2C(=O)c1cc(-n2cncn2)ccc1Cl", "OBSERVATION_TYPE": "Plant response rating, Ragweed", "RESULT": 50}
{"COMPOUND": "Cc1cccc2c1O[C@@H](C)CN2C(=O)c1ccc(F)c(-n2cncn2)c1", "OBSERVATION_TYPE": "Plant response rating, Ragweed", "RESULT": 30}
{"COMPOUND": "CC1CN(C(=O)c2cc(F)cc(-n3cncn3)c2)c2cccc(Cl)c2O1 (stereo not drawn)", "OBSERVATION_TYPE": "Plant response rating, Ragweed", "RESULT": 0}
{"COMPOUND": "CC1CN(C(=O)c2cc(-n3cncn3)ccc2F)c2cccc(Cl)c2O1 (stereo not drawn)", "OBSERVATION_TYPE": "Plant response rating, Ragweed", "RESULT": 60}

Switching to the query record.
Notebook: `Cc1cccc2c1O[C@@H](C)CN2C(=O)c1cccc(-n2cnc(C(C)C)n2)c1` , Plant response rating, Ragweed read as 70
